test_target: DRB1*0701 (DR7) (Homo sapiens, UniProt P01903+P01911, A100R/A102G/A103Q/D57E/D86V/E43K/F76Y/K127E/L162R/M171V/P40G/Q125H/Q99D/R33Q/R42Y/R54Q/S133A/S66F/T210M/V115G/Y107V/Y59L/Y89S)
measurement_notes: HLA class II binding assay, purified HLA molecules
condition_context: Her2/neu DR supertype primary binding, Table XXVIII
In this section we review reported pIC50 values for a set of compounds.
Scale: negative log10 of molar concentration, which is what pIC50 denotes.

CSCC[C@H](NC(=O)[C@H](CC(C)C)NC(=O)[C@H](CCC(N)=O)NC(=O)[C@@H](NC(=O)[C@@H](NC(=O)[C@H](CC(C)C)NC(=O)[C@H](CCC(N)=O)NC(=O)[C@@H](NC(=O)[C@@H](N)[C@@H](C)O)C(C)C)C(C)C)[C@@H](C)O)C(=O)N1CCC[C@H]1C(=O)N[C@@H](Cc1ccc(O)cc1)C(=O)NCC(=O)N[C@@H](CS)C(=O)N[C@@H](CC(C)C)C(=O)N[C@@H](CC(C)C)C(=O)O | 5.60

Asked: Read the entry CSCC[C@H](NC(=O)[C@H](CC(C)C)NC(=O)[C@H](CCC(=O)O)NC(=O)[C@H](Cc1c[nH]c2ccccc12)NC(=O)[C@@H](NC(=O)[C@@H](NC(=O)[C@@H](NC(=O)CN)C(C)C)[C@@H](C)O)C(C)C)C(=O)N[C@H](C(=O)N[C@@H](Cc1ccccc1)C(=O)NCC(=O)N[C@@H](C)C(=O)N[C@@H](CCCCN)C(=O)N1CCC[C@H]1C(=O)N[C@@H](Cc1ccc(O)cc1)C(=O)O)[C@@H](C)O and write its reported pIC50.
Given back: 5.83

Asked: Please supply the value of reported pIC50 for the item CC[C@H](C)[C@H](NC(=O)[C@H](CCC(N)=O)NC(=O)[C@H](CCSC)NC(=O)[C@H](CS)NC(=O)[C@H](Cc1c[nH]c2ccccc12)NC(=O)[C@H](CC(N)=O)NC(=O)[C@H](CC(C)C)NC(=O)[C@@H](N)CC(C)C)C(=O)N[C@@H](C)C(=O)N[C@@H](CCCCN)C(=O)NCC(=O)N[C@@H](CCSC)C(=O)N[C@@H](CO)C(=O)N[C@@H](Cc1ccc(O)cc1)C(=O)N[C@@H](CC(C)C)C(=O)O
Given back: 6.68

Asked: Return reported pIC50. Input compound: CC(C)C[C@H](NC(=O)[C@H](C)NC(=O)[C@H](Cc1ccc(O)cc1)NC(=O)[C@H](CC(N)=O)NC(=O)[C@H](CC(=O)O)NC(=O)[C@H](CCC(=O)O)NC(=O)[C@H](Cc1ccccc1)NC(=O)[C@H](CC(C)C)NC(=O)[C@H](CCC(N)=O)NC(=O)[C@@H](N)[C@@H](C)O)C(=O)N[C@@H](C)C(=O)N[C@H](C(=O)N[C@@H](CC(C)C)C(=O)N[C@@H](CC(=O)O)C(=O)N[C@@H](CC(N)=O)C(=O)O)C(C)C
Given back: 5.81

---

Attribute: IC50
test_target: A*0101 (Homo sapiens, UniProt P04439, A114D/A174V/A182V/D101N/D185E/E176A/E190D/L180R/Q94H/R68K/S129P/T187R/V100A/V91M/W191G)
measurement_notes: HLA class I binding assay, purified HLA molecules, inhibition of 125I-radiolabeled probe peptide
condition_context: HLA-A1 Motif-Bearing Peptides, Table XXV
Where no end group is shown, it is not given here.
Give just the numeric value; nM need not be written.

HTDMLRHLY [Her2/neu.42.T2] | 1.9
GTDMKLRLPY [Her2/neu.28.Y10] | 50
VFETLEEITGY [Her2/neu.399] | 5560
ETHLDMLRHLY [Her2/neu.40] | 89
ETMPNPEGRY [Her2/neu.280.T2] | 3.9

# evaluate next
Asked: Input GTDLFEDNY [Her2/neu.104.D3] , output reported IC50.
Given back: 0.9

Each recorded value in this set is attributed to patent EP1568373A2.
